# experimental-details: chemical genetic growth profiling, strain panel (AID 1159580);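 note: tested at 20 µM; growth read once vehicle control cultures reached saturation at 30 °C; 1 = growth at the plate median or of vehicle wells; lower values mean less growth of the strain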
# condition-label: S. cerevisiae deletion strains, growth OD, locus YJL168C, strain set2, stronger effect = lower value
The campaign covered roughly 5,500 compounds. About 2,000 (36%) were called active. About 18% were inconclusive and are not listed. The list shows a part of the results.
normalized growth by entry:
// print number alone

Recorded normalized growth, per entry:
normalized growth measured on NC[C@@H]1O[C@H](O[C@@H]2[C@@H](CO)OC(O[C@@H]3[C@@H](O)[C@H](N)C[C@H](N)[C@H]3OC3O[C@H](CN)[C@@H](O)[C@H](O)[C@H]3N)[C@@H]2O)[C@H](N)[C@@H](O)[C@@H]1O (some centres undefined) = 1.01

O=C(O)C1C(O)CCC2CN3CCc4c([nH]c5ccccc45)C3CC21 (centres undefined) has a reported normalized growth of 1.01

# compound COC(=O)[C@@H]1C(O)CC[C@H]2CN3CCc4c([nH]c5ccccc45)[C@@H]3C[C@@H]21 (some centres undefined) ; its normalized growth = 1

The recorded normalized growth for `O=[N+]([O-])O[C@H]1CO[C@H]2[C@@H]1OC[C@H]2O[N+](=O)[O-]` is 1

So, `Oc1ccc(O)cc1` ? Its normalized growth was 1.02

Recorded result, CC1(C)C2CC[C@]3(C)C(C(=O)C=C4[C@H]5C[C@@](C)(C(=O)O)CC[C@]5(C)CC[C@]43C)[C@@]2(C)CC[C@@H]1O (some centres undefined) , normalized growth: 1.02

Value of measured normalized growth for the entry CCC1(c2ccc(N)cc2)CCC(=O)NC1=O (centres undefined) : 0.988

Measured normalized growth, `C[N+](C)(C)CC(=O)[O-]` : 0.992

Looking up `C=C(C)/C=C1/C=CC(=O)C(C)=C1` , I found its normalized growth recorded as 0.203

The value of normalized growth measured for the compound `Nc1nc2[nH]c(=O)c(=O)[nH]c2c(=O)[nH]1` turned out to be 1

Next:
So for `O=c1ccc2cc(O)c(O)cc2o1` , the logged normalized growth turned out to be 0.985

// `CC(C)(C)CC(C)(C)c1ccc(OCCOCC[N+](C)(C)Cc2ccccc2)cc1` : normalized growth value = 0.999

Record `COC(=O)[C@H]1[C@H]2C[C@H]3c4[nH]c5ccccc5c4CCN3C[C@H]2CC[C@@H]1O` . Reported normalized growth: 0.998

Measured normalized growth, CC1(C)C2CC[C@]3(C)C(C(=O)C=C4[C@@H]5C[C@@](C)(C(=O)O)CC[C@]5(C)CC[C@]43C)[C@@]2(C)CC[C@@H]1OC(=O)CCC(=O)O (some centres undefined) : 0.997

Record `COc1c2c(c(CC=C(C)C)c3oc(=O)c(-c4ccc(O)cc4)c(O)c13)OC(C)(C)C=C2` . Reported normalized growth: 0.985

----------
# experimental-details: chemical genetic growth profiling, strain panel (AID 1159580);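 note: tested at 20 µM; growth read once vehicle control cultures reached saturation at 30 °C; 1 = growth at the plate median or of vehicle wells; lower values mean less growth of the strain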
# condition-label: S. cerevisiae deletion strains, growth OD, locus YLR384C, strain iki3, stronger effect = lower value
Out of some 5,500 compounds screened, about 2,000 (36%) were called active. Another 18% or so got no clear call; they are omitted. The list shows a part of the results.
measured-metric: normalized growth
I'd appreciate a reply containing only the number, no unit.

Worked examples follow.
Form: molecule = CC(C)CC1C(=O)N2CCC[C@H]2C2(O)O[C@](NC(=O)C3C=C4c5cccc6[nH]c(Br)c(c56)C[C@H]4N(C)C3)(C(C)C)C(=O)N12 (some centres undefined) ; normalized growth = 0.987

Summary for this molecule, C[N+](C)(C)CCOP(=O)([O-])OP(=O)(O)OC[C@H]1OC(n2ccc(N)nc2=O)[C@H](O)[C@@H]1O (some centres undefined) : normalized growth is 0.981

The molecule listed as `CCCCCCCCCCCCCCCCOP(=O)([O-])OCC[N+](C)(C)C` has a reported normalized growth of 0.0585

Now for the molecule whose normalized growth we want.
Record `COc1ccc(-c2coc3c(O)c(OC)ccc3c2=O)cc1` . Reported normalized growth: 0.989
